- experimental-protocol: NCI Yeast Anticancer Drug Screen. Data for the rad50 strain (AID 155);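 also: 0% = growth of vehicle-only cultures of the same strain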
- conditions: S. cerevisiae rad50 strain growth inhibition; at 50.0 µM (retest, dose inferred, filed as 5.0); hits give high values
About 79,000 compounds went through this panel and 15% of them were active in at least one assay; those are over-represented in the sample as a whole.
measure-name: growth inhibition (%)

{"molecule": "O=C(/C(=C\\I)c1ccccc1)c1ccccc1", "quantitative-result": 6}
{"molecule": "O=C(OC1CC2CC1C1CC=CC21)c1ccccc1 (centres undefined)", "quantitative-result": -3}
{"molecule": "Cc1cc(Cc2cccc(Cl)c2)ccc1O", "quantitative-result": 99}
{"molecule": "N#CC12CC3=C(N=C1NC1=C(CCc4ccccc41)C2)c1ccccc1CC3 (centres undefined)", "quantitative-result": 51}
{"molecule": "CCCCCN(CCCCC)CCNc1ccc(C)c2sc3ccccc3c(=O)c12", "quantitative-result": 96}
{"molecule": "O=[N+]([O-])c1ccc(NC(=S)N/N=C(\\c2ccccc2)c2ccccn2)cc1", "quantitative-result": 73}
{"molecule": "COc1ccc(/C=C2\\C(=O)N(C)C(=O)c3cc(OC)c(OC)cc32)cc1OC", "quantitative-result": 12}
{"molecule": "O=C(c1cccs1)N(C(=S)N1CCN(c2ccccn2)CC1)c1ccccc1", "quantitative-result": 16}
{"molecule": "Cc1cc(C)[nH]c(=S)n1.[Pt]", "quantitative-result": -9}
